Each recorded value in this set is attributed to a melting point compilation (Tetko et al.; mined from patent text by program, amines drawn as free bases though some values may be those of a salt).

Recorded melting point for the following compounds

1) COc1cc(CN2C(=O)C3(COc4cc5c(cc43)OCCO5)c3ccccc32)cc(OC)c1 (stereo unspecified) ... 192 to 195 °C
2) O=c1[nH]nc(-c2ccc(NN=C(c3ccccc3)c3ccc(O)cc3O)cc2)c2ccccc12 ... 160 to 170 °C
3) CN1C(=O)CC[C@]2(C)c3ccc(Sc4ccccc4)cc3CC[C@@H]12 ... 109 to 112 °C
4) COc1cccc(CN2Cc3cc(OC)c(O)cc3C(O)C2)c1 (stereo unspecified) ... 137 to 138 °C
5) CCOC(=O)c1c(N)c2c(n1C)N=CCN2 ... 119 to 121 °C
6) O=c1[nH]cccc1CO ... 203 to 205 °C
7) CC(CS)C(=O)Nc1cccc(C(=O)O)n1 (stereo unspecified) ... 178 to 179 °C
8) OCC(O)Cc1nccn1CCCCc1ccc(OCc2coc(/C=C/c3ccc(F)cc3)n2)cc1 (stereo unspecified) ... 114 to 116 °C

Looking for the measured melting point of C=C1CCCCC1(C(=S)NC)c1cccnc1 (stereo unspecified) , can you help?
106 to 108 °C

Given the compound `CN(C)c1cc(CCl)nc(N)n1` , what is its reported melting point?
127 to 129 °C

Any idea what melting point was measured for `CSc1ncc(S(=O)(=O)NC(C)(C)C)c(Nc2cccc(C)c2)n1` ?
178 °C

###

Known melting point of a selection of compounds

1. O=C(OCc1c(Cl)ccc2cc(Cl)cnc12)c1ccccc1[N+](=O)[O-] ... 152 °C

Need melting point of `COc1cn2nc(OCCCN3CCN(C(c4ccccc4)c4ccccc4)CC3)ccc2n1` , thanks.
144 to 146 °C

What value of measured melting point is listed for C=C1CC(COc2cccc3cccnc23)(c2ccccc2)OC1=O (stereo not given) ?
101 to 102 °C

###

test readout: melting point

Solved cases below.
1. CC(C)Cc1ccc(-c2ccccc2C(C)C(=O)O)cc1 (stereo unspecified) ... 76 to 77 °C
2. COC(=O)c1ccc(C=CC(=O)N2CCc3c([nH]c4ccccc34)C2c2ccc3c(c2)OCCO3)cc1 (stereo unspecified) ... 136 °C
3. Cc1cc(C)cc(-c2nc3ncccc3o2)c1 ... 148 to 152 °C

I'd like to know its melting point. The compound in question is `CC(C)NS(=O)(=O)c1cc(Br)c(N)c(Br)c1`
181 to 183 °C

# get_value(readout='melting point', item= `CCn1ncc2c(Cl)c3cccc(OC)c3nc21` )
168 to 170 °C

# input compound: `NC1=Nc2cccc3c(=O)[nH]nc(c23)N1` ; wanted: its melting point
> 300 °C

Any idea what melting point was measured for CN1CCN(C2CC(=O)c3ccc(F)cc32)CC1 (stereo unspecified) ?
102 to 103 °C

###

test readout: melting point

Past entries and their recorded results:
1) CCCCCCCCCCNC(=O)c1ccc(C(=O)NCCCCCCCCCC)c(N(CC(=O)O)CC(=O)O)c1 ... 135 to 136 °C
2) CC(C)(C)[Si](C)(C)Oc1ccc2c(c1)oc(=O)c1c3ccc(O[Si](C)(C)C(C)(C)C)cc3oc21 ... 118 to 119 °C
3) N#Cc1nc(C#Cc2ccccc2)c(C#Cc2ccccc2)nc1C#N ... 226 to 227 °C
4) Cn1ccc2cc(Nc3ccncc3)ccc21 ... 202 to 203 °C

Attention now turns to another entry.
What value of melting point has been recorded for this entry: `O=C(O)COc1cccc2c1CCc1sc(SC(c3ccccc3F)c3ccccc3F)nc1-2`
194 to 196 °C

###

test readout: melting point

Guide cases for melting point, answers given:
1. CC1Cc2cc3c(cc2C(c2ccc([N+](=O)[O-])cc2)=NN1c1nccs1)OCO3 (centres undefined) ... 145 to 150 °C
2. C=CCN(CC=C)c1nc(NCC(=O)OC)n2oc(=O)nc2n1 ... 173 to 174 °C
3. CC(=O)Nc1cnc(N2CCN(CCCC(=O)c3ccc(F)cc3)CC2)cc1NC(C)=O ... 206 to 209 °C
4. CCCc1c(OCCCOc2ccc3ccc(OCC(=O)OC)cc3c2C(C)=O)ccc(C(C)=O)c1O ... 104 to 107 °C
5. CNC(=O)c1ccccc1Nc1nc(Nc2cc3c(cc2OC)CCN(CCOC)CC3)ncc1Cl ... 109 to 112 °C

Endpoint output: melting point of CC(O)c1nnc(-c2ccc3occ(-c4cccc(OC(F)(F)F)c4)c3c2)o1 (centres undefined) . Value?
131 to 132 °C

So what's the measured melting point for this one? `CCS(=O)(=O)c1ccc2c3c(cccc13)C(=O)N2`
270 to 272 °C

Could you share which melting point value was measured for `NS(=O)(=O)c1ccc(-c2oc(C(F)(F)F)nc2-c2ccccc2)cc1` ?
137 to 138 °C

What melting point value was documented for this compound, NCC(=O)N(C(=O)C(O)c1ccccc1)c1ccccc1 (centres undefined) ?
148 to 151 °C

###

Each item that follows carries a reported melting point.

Examples with their reported melting point follow.
1) CCn1c(C)nc2cc(C(F)(F)F)c(OC)c([N+](=O)[O-])c21 ... 84 to 85.5 °C
2) O=C(N[C@H]1C(=O)N[C@@H]1CCO)OCc1ccccc1 ... 120 to 121 °C
3) Oc1ccc(-c2nnc(CSCCOc3ccccc3)n2-c2ccccc2)cc1 ... 214 to 216 °C
4) CC1(n2cc(C(=O)O)c(=O)c3cc(F)c(N4CCC(N)C4)c(F)c32)CC1 (stereo unspecified) ... > 300 °C
5) O=C(OC1c2ccccc2C(=O)N1c1ccc2ccc(Cl)nc2n1)N1CCN(C(=O)C(F)(F)F)CC1 (stereo unspecified) ... 218 °C
6) COc1cccc(CN(CC(=O)O)Cc2ccccc2)c1 ... 177 to 179 °C
7) C=CCO/N=C(/C(=O)O)c1ccc(OCCOc2ccc3ccccc3c2)s1 ... 106 to 108 °C
8) Cc1cccc2c1NC(=O)C2 ... 206 to 207 °C

For `CCc1cccc(C)c1C(=O)N[C@@H](Cc1ccc(-c2c(C(F)(F)F)cc(C)n(C)c2=O)cc1)C(=O)O` , what is its reported melting point?
219 to 221 °C

Can you look up the measured melting point of `CCCCN(Cc1ccc(-c2ccccc2S(=O)(=O)NC(=O)OC(C)(C)C)cc1)C(=O)N1CCCc2ccccc21` for me?
> 67 °C

Given `CCOC(=O)C1CCN(c2cc(-c3ccccc3)nc3ccc(F)cc23)CC1` , state its recorded melting point.
120 to 124 °C

Requested read-out: melting point. Entry: `CNC(=O)Cc1ccc(N)c(N)c1`
136 to 138 °C

# get_value(readout='melting point', item= `N#CCC1(C#N)CCC2(CC1)OCCO2` )
137 °C

Entry under review: `N#CCON=C(CCN1CCN(c2ccccn2)CC1)c1ccccc1` . Reported melting point?
127 to 128 °C

Give the measured melting point of `O=C(Nc1c(F)cccc1F)c1ccc(-n2nc(C(F)(F)F)cc2C2CC2)cc1` .
145 to 147 °C

Data request, read-out melting point, for `C[C@H](N)C(=O)N(CC(=O)O)C1Cc2ccccc2C1`
180 to 182 °C

Could you share which melting point value was measured for `CCOC(=O)N(C(C)=O)c1ccc(OCc2nc3ccccc3s2)cc1` ?
155 to 160 °C

Endpoint output: melting point of CSCCC1N=C(c2ccccc2)c2cc(Cl)ccc2NC1=O (stereo unspecified) . Value?
184 °C

Sample `CCOc1nc(OCC)nc(N2CCN(C=O)CC2)n1` — what was its melting point?
106 to 108 °C

Value lookup for melting point; key = `CCCCN(CCCC)CCCOc1ccc(S(=O)(=O)c2ccccc2CC)cc1`
80 °C

# lookup: melting point of `COc1cc(C=CC(=O)c2ccc(I)cc2O)cc(OC)c1OCc1ccccc1`
124 to 125 °C

###

Measured melting point accompanies every entry in the list below.

# count of solved cases: 10
1. CCOC(=O)C1=NN(c2ccc([N+](=O)[O-])cc2)C2(N3CCCC3)CCCC12 (stereo unspecified) ... 118 °C
2. Cc1cccc2c1ccc1c(O)cc(=O)oc12 ... 223 to 225 °C
3. CCOC(=O)c1c(C)nc2c(nc(C)n2C)c1OCC ... 85 to 87 °C
4. CC(C)(C)OC(=O)CNC1Cc2ccccc2C1 ... 54 to 55 °C
5. O=C(O)c1ccc2oc(-c3ccc(Cl)c(Cl)c3)cc2c1 ... > 260 °C
6. CC(C)(C)CC(C)(C)c1cc(-n2nc3ccc(-c4ccsc4)cc3n2)c(O)c(C(C)(C)c2ccccc2)c1 ... 147 to 149 °C
7. CSC1=Nc2ccc(Cl)cc2Cn2nnnc21 ... 131 to 133 °C
8. CN1CCN(c2cc3ccccc3c(=O)[nH]2)[C@@H](CO)C1 ... 169 to 171 °C
9. CCOC(=O)/C=C/c1ccc(OCCOC)cc1OS(=O)(=O)C(F)(F)F ... 37.1 to 37.3 °C
10. Cc1cc(C#N)cn2cc(-c3cccc(Br)c3)nc12 ... 168 to 170 °C

Return reported melting point; argument: CN(C)C(=O)C1Cc2c(c(Cl)cc(F)c2N2C(=O)C3=C(CCCC3)C2=O)O1 (stereo unspecified)
190 to 193 °C

Which melting point value is on record for `CNC(=O)c1ccccc1Nc1nc(Nc2cc3c(cc2OC)CCOC(=O)N3C)ncc1Br` ?
251 to 253 °C

For the molecule shown here, `NC(=O)c1c(Br)cc(Br)c(C(=O)O)c1Br` , give the reported melting point.
> 280 °C

Record request: melting point value, item `Fc1cc2cc3n(c2cc1Cl)CCNC3`
195 to 197 °C

Requested field: melting point. Item: `COc1cc(CCNCc2ccccc2)c(CC(=O)O)cc1OC`
213 to 214 °C

Which melting point is listed for `CCCCCCCCCCCCCCN(CCCCCCCCCCCCCC)S(=O)(=O)c1ccc(C)cc1` ?
54 °C

Would you mind telling me what melting point value was observed for O=C(CNC(=O)c1ccc(/C=C/C(c2cc(Cl)c(Cl)c(Cl)c2)C(F)(F)F)cc1Cl)NCC(F)(F)F (stereo unspecified) ?
83 to 85 °C

Find the recorded melting point belonging to COc1ccc2ccc(N3C(=O)C4=C(SCC(OC)CS4)C3OC(=O)N3CCN(C)CC3)nc2n1 (stereo unspecified) and report it.
215 °C

Which melting point is listed for `CC(C)Oc1ccc(Nc2nc(=O)n(C(C)C)c(=O)n2Cc2ccc(Cl)cc2)cc1Cl` ?
167 °C

Can you share its melting point? I mean this molecule: `CC1(C)CCCC(C)(C)N1c1nc(Cl)cc(N2CCCC2)n1`
130 to 135 °C

So what does the record say about melting point for `CC(C)C(=O)Nc1ccoc1` ?
120 °C
